- system_name: TLR7 (Homo sapiens (Human), UniProt Q9NYK1)
- Sequence (Q9NYK1 27-1049): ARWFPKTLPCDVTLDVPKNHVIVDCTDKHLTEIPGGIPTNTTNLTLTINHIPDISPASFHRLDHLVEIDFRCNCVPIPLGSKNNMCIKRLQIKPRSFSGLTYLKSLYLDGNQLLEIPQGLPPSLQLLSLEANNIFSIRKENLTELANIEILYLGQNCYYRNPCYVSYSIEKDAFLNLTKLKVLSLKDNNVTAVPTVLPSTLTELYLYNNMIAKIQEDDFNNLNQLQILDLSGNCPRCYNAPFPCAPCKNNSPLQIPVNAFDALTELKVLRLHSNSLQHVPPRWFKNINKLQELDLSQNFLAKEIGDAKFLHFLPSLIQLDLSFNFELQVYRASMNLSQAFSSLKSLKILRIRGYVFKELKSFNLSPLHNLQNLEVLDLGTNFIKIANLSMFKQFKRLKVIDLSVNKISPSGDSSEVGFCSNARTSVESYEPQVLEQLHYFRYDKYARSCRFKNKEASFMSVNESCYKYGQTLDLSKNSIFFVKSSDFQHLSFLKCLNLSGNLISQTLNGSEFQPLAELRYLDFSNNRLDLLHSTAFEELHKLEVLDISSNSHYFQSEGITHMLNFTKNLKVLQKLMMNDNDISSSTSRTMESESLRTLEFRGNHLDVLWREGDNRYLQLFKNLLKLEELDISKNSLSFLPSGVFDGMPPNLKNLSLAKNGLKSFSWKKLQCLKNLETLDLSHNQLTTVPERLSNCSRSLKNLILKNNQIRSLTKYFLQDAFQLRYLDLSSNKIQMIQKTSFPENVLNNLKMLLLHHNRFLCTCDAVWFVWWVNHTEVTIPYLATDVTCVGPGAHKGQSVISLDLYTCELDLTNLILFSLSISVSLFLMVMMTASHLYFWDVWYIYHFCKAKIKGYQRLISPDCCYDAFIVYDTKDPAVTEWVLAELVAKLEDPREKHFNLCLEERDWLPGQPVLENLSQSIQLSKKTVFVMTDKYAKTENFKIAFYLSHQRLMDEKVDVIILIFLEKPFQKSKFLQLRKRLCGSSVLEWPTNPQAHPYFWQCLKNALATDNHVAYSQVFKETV
- experiment_description: TLR7 human peripheral blood mononuclear cell (PBMC) cell-based assay (GS-986 as agonist; IL-6 and IFNα readout)
- settings: human PBMCs, TLR7 agonist GS-986 at 400 nM, 6 hours, antagonist potency; read-out: TLR-7 EC50
Would you mind telling me the reported EC50 of each entry?
One number for each entry, in nM.

molecule	system_name	EC50, nM
Cc1c([C@@H]2C[C@@H]3CN(CC(N)=O)C[C@@H]3C2)sc2[nH]c(-c3cc(C)c4ncnn4c3)c(C(C)C)c12	TLR7 (Homo sapiens (Human), UniProt Q9NYK1)	0.45
Cc1c(C2CCN(C(=O)[C@H]3CNCCO3)CC2)sc2[nH]c(-c3cc(C)c4ncnn4c3)c(C(C)C)c12	TLR7 (Homo sapiens (Human), UniProt Q9NYK1)	0.59
Cc1c(-c2[nH]c3sc(C4CCC5(CC4)CNCCO5)c(C)c3c2C(C)C)cn2ncnc2c1C (stereo not shown) [Example 144]	TLR7 (Homo sapiens (Human), UniProt Q9NYK1)	0.25
Cc1c(-c2[nH]c3sc(-c4cccc(C5CCN(CC(N)=O)CC5)c4)c(C)c3c2C(C)C)cn2ncnc2c1C	TLR7 (Homo sapiens (Human), UniProt Q9NYK1)	15.5
Cc1c(C2CN(CC(N)=O)C2)sc2[nH]c(-c3cc(C)c4ncnn4c3)c(C(C)C)c12	TLR7 (Homo sapiens (Human), UniProt Q9NYK1)	3.12

Kindly give each listed record's EC50.
1. Cc1c(-c2[nH]c3sc([C@@H]4C[C@@H]5C[C@H]4CN5CC(=O)OC(C)(C)C)c(C)c3c2C(C)C)cn2ncnc2c1C
2. Cc1c(C2CCN(CC(N)=O)CC2)sc2[nH]c(C3=NC(C)c4ncccc43)c(C(C)C)c12 (stereo not shown)

1.71
0.83
